Reference for the values: paper PMC4890880

System: Plasmodium berghei (Pb-Luc) exoerythrocytic-stage parasites
Conditions: second series; concentration 0.00152416; fraction of control
Consider the cut-off 1. If the recorded normalized signal at concentration 0.00152416 is strictly smaller, the label is 1.0; if not, the label is 0.0.

Some entries whose results are on file:
Data request: Dear colleague, could you confirm whether normalized signal at concentration 0.00152416 of CC(C)[C@H]1COCn2nncc2CCCC(=O)N1 [BRD-K14350179-001-01-1] falls below 1? Thanks.
Data returned: 0.0

Data request: Dear colleague, could you confirm whether normalized signal at concentration 0.00152416 of Cc1cccc(-c2ccc(C3[C@@H]4CN(C(=O)CN(C)C)C[C@H]3N4)cc2)c1 (stereo partly drawn) [BRD-K25161260-019-01-1] falls below 1? Thanks.
Data returned: 1.0

Data request: Dear colleague, could you confirm whether normalized signal at concentration 0.00152416 of C[C@@H]1CN([C@H](C)CO)C(=O)c2cc(N(C)C)ccc2O[C@@H](C)CCCCO[C@H]1CN(C)S(=O)(=O)c1ccc(F)cc1 [BRD-K72687327-001-01-6] falls below 1? Thanks.
Data returned: 0.0

Data request: Dear colleague, could you confirm whether normalized signal at concentration 0.00152416 of C[C@@H]1CN([C@@H](C)CO)C(=O)c2cccc(NC(=O)c3ccc(-c4nccs4)cc3)c2O[C@H]1CN(C)C(=O)Nc1ccc(C(F)(F)F)cc1 [BRD-K97485207-001-01-1] falls below 1? Thanks.
Data returned: 1.0

New cases:
Data request: Dear colleague, could you confirm whether normalized signal at concentration 0.00152416 of O=S(=O)(c1cccs1)N1CCCCN2[C@H](CO)[C@H](c3ccc(/C=C/c4ccccc4)cc3)[C@H]2C1 [BRD-K20449903-001-01-6] falls below 1? Thanks.
Data returned: 0.0

###

Test system: Plasmodium cynomolgi exoerythrocytic-stage small (hypnozoites) and large (liver stage schizonts) parasites
Assay: P. cynomolgi liver assay in primary hepatocytes
Details: Plasmodium cynomolgi, Hepatocyte, read-out: % inhibition normalized to untreated control, Small
Record form. Attribute: inhibition at 0.1 µM. Fill in for each entry.
Answers are plain numbers, in %.

// below: answered molecules
// field: inhibition at 0.1 µM; key: `O=C(Nc1ccc(-c2nc3cc(NC(=O)c4ccc(Cl)cc4)ccc3[nH]2)cc1)c1ccc(Cl)cc1` ; value = -8

// field: inhibition at 0.1 µM; key: `COc1ccccc1CNC(=O)CCn1c(=O)[nH]c2ccccc2c1=O` ; value = 20

// field: inhibition at 0.1 µM; key: `O=C(Nc1cccc(C(F)(F)F)c1)c1cc(Cl)ccc1O` ; value = 17

// field: inhibition at 0.1 µM; key: `Cc1ccc(N2C3c4ccccc4N(S(=O)(=O)c4ccc(C)cc4)C2c2ccccc2N3S(=O)(=O)c2ccc(C)cc2)cc1` ; value = 17

Alright, here's another molecule for you.
// field: inhibition at 0.1 µM; key: `COc1ccccc1CNC(=O)CCn1c(=O)[nH]c2ccsc2c1=O` ; value = 10

###

Test system: Plasmodium berghei (Pb-Luc) exoerythrocytic-stage parasites
Assay: microbe, parasite or virus in culture
Conditions: read-out: Inhibition% @ 50 uM rep2
experimental_readout: inhibition at 50 µM (%)
Numbers only, in %.

// field: inhibition at 50 µM; key: `O=C(Nc1ccc(Cl)cc1)N1CCN(c2ccc3nncn3n2)CC1` ; value = 62

// field: inhibition at 50 µM; key: `Cc1nc2ccccc2c(O)c1CC=C(Cl)Cl` ; value = 102

// field: inhibition at 50 µM; key: Cc1ccc(N2C(=O)C3C(C2=O)C2(c4ccccc4)C(=O)C3(c3ccccc3)C(c3ccccc3)=C2c2ccccc2)cc1 (stereo not drawn) ; value = 100

// each compound listed below needs its inhibition at 50 µM
1. CCCCCCc1cc2cc(-c3csc(C=Cc4ccccc4)n3)c(=O)oc2cc1O
2. O=C1c2ccccc2C2=Nc3ccccc3SC(c3cccc(F)c3)C12 (stereo not drawn)
3. CCOC(=O)c1cnc2ccc(OC)cc2c1Nc1ccc(N2CCN(C)CC2)cc1
4. COc1ccc(CCN2CCC(CN(C)Cc3cnn(-c4ccccc4)c3)CC2)cc1
5. c1ccc(Cn2c(N=Nc3c(Nc4ccccc4)ccc4ccccc34)nc3ccccc32)cc1
6. CCOc1cc(CNC(C)C(O)c2ccccc2)cc(Cl)c1OCC (stereo not drawn)

Data returned:
1. 104
2. 103
3. 102
4. 103
5. 98
6. 102

###

Tested on: HepG2-A16-CD81EGFP cells
Assay: cells
Settings: Homo sapiens, HepG2, read-out: HepG2 Tox% @ 50 uM rep1
experimental_readout: cytotoxicity at 50 µM (%)
Give bare numbers, in %.

// below: answered molecules
// field: cytotoxicity at 50 µM; key: `COc1ccccc1N1C(=N)SC(=Cc2ccc(OCc3ccccc3F)cc2)C1=O` ; value = 14

// field: cytotoxicity at 50 µM; key: CCCCCC(=O)N1c2ccccc2N=C2CC(c3ccc(OC)c(OC)c3)CC(O)=C2C1c1ccc(C(F)(F)F)cc1 (centres unmarked) ; value = 14

// field: cytotoxicity at 50 µM; key: `Oc1ccc(Br)cc1CN1CCN(Cc2cccc(F)c2)CC1` ; value = 64

// field: cytotoxicity at 50 µM; key: `COc1ccccc1CNC(=O)CCn1c(=O)[nH]c2ccccc2c1=O` ; value = -21

// field: cytotoxicity at 50 µM; key: `Oc1ccc(-c2nc(-c3ccc4oc5ccc(-c6[nH]c(-c7ccc(O)cc7)nc6-c6ccccc6)cc5c4c3)c(-c3ccccc3)[nH]2)cc1` ; value = 101

// each molecule listed below needs its cytotoxicity at 50 µM
1. COc1ccc(Nc2nc(NN=Cc3ccc(O)cc3)nc(Nc3ccc([N+](=O)[O-])cc3)n2)cc1
2. CCOc1cc(CNC(C)C(O)c2ccccc2)cc(Cl)c1OCC (centres unmarked)
3. CCCOCc1cc(CN2CCN(c3cccc(Cl)c3)CC2)c(O)c2ncccc12

Data returned:
1: 97; 2: 98; 3: 93

###

Record form. Attribute: normalized signal at concentration 0.0137174. Fill in for each entry.
Test system: Plasmodium berghei (Pb-Luc) exoerythrocytic-stage parasites
Conditions: first series of columns; concentration 0.0137174; fraction of control
Answers are plain numbers.

// field: normalized signal at concentration 0.0137174; key: COc1cccc(S(=O)(=O)N2CCCCN3[C@H](CO)[C@H](c4ccc(C#CCC(C)C)cc4)[C@H]3C2)c1 [BRD-K69197522-001-01-4] ; value = 0.9046

// field: normalized signal at concentration 0.0137174; key: C[C@@H]1CCCCO[C@H](CN(C)S(=O)(=O)c2ccc(F)cc2)[C@@H](C)CN([C@@H](C)CO)C(=O)c2cc(N(C)C)ccc2O1 [BRD-K27035180-001-01-0] ; value = 0.9285

// each molecule listed below needs its normalized signal at concentration 0.0137174
1. CO[C@H]1CN(C)C(=O)c2cc(NC(=O)c3cccc(F)c3)ccc2OC[C@H](C)N(C)C[C@H]1C [BRD-K79512815-001-01-8]
2. O=C(O)C[C@H]1CC[C@@H]2[C@H](COC[C@@H](O)CN2S(=O)(=O)c2ccc(Oc3ccccc3)cc2)O1 [BRD-K61788733-001-01-3]

Data returned:
1: 1.1664; 2: 0.9455

###

Biological target: QuantiLum Recombinant Luciferase (Photinus pyralis, UniProt P08659)
Sequence (P08659 whole entry): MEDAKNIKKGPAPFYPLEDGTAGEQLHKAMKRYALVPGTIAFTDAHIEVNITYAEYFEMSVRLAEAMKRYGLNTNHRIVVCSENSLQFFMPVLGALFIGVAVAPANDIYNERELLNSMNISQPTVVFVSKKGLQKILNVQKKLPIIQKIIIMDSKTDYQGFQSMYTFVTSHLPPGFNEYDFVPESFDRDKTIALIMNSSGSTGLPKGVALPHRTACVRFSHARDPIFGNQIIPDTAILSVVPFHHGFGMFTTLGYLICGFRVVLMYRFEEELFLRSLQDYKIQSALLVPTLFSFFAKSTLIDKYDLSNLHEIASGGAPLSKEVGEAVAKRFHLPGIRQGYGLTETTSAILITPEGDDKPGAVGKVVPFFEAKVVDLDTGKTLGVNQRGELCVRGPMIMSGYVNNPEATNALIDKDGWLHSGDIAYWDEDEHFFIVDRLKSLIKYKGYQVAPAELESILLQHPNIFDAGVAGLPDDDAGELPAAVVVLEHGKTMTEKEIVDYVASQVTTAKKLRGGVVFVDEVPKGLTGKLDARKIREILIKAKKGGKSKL
Assay: Bioluminescence quantification of compound luciferase inhibition
Record form. Attribute: IC50. Fill in for each entry.

// below: answered compounds
// field: IC50; key: CC(C)(C)c1ccc(C(=O)Nc2c3c(nn2-c2cccc(Cl)c2)CSC3)cc1 [MMV666123] ; value = > 50 µM

// field: IC50; key: N=c1c2ccccc2nnn1-c1cccc(C(F)(F)F)c1 [MMV665923] ; value = > 50 µM

// field: IC50; key: CCCc1c(C)nc2ccc(Br)cc2c1O [MMV666095] ; value = > 50 µM

// each compound listed below needs its IC50
1. Cc1c(C)n(Cc2ccc(F)cc2)c2ccc(C(=O)NCc3ccco3)cc12 [MMV008149]
2. COc1ccc(C(C)=O)cc1N1C(=O)C2C(C1=O)C1(c3ccccc3)C(=O)C2(c2ccccc2)C(c2ccc(C)cc2)=C1c1ccc(C)cc1 (stereo not drawn) [MMV007695]
3. COc1ccc(-c2nc(N3CCN(C(=O)C4CCCCC4)CC3)c3c4c(sc3n2)CCCC4)cc1 [MMV396594]
4. N#Cc1nc(Cc2cccc3ccccc23)oc1N1CCN(C(c2ccccc2)c2ccccc2)CC1 [MMV396726]

Data returned:
> 50 µM
> 50 µM
> 50 µM
> 50 µM

// each compound listed below needs its IC50
1. Oc1c2c(nc3cc(-c4ccccc4)nn13)CCCC2 [MMV008270]
2. CCN1CCN(c2c(C(=O)c3ccccc3)cnc3cc(OC)c(OC)cc23)CC1 [MMV008474]
3. O=C(c1ccccc1F)N(Cc1ccc(Cl)cc1)c1ccccn1 [MMV665899]
4. CCOC(=O)c1cn(CC)c2cc(N(C)CCc3ccc(OC)c(OC)c3)c(F)cc2c1=O [MMV665977]
5. CCOC(=O)c1cn(CC)c2cc(N3CCCCC3)c(F)cc2c1=O [MMV665827]
6. CCOC(=O)c1cnc2c(CC)cccc2c1O [MMV498479]
7. CCOc1ccc(CCNC(=O)c2cccs2)cc1OCC [MMV007978]

Data returned:
1. 0.577 µM
2. > 50 µM
3. > 50 µM
4. > 50 µM
5. > 20 µM
6. > 50 µM
7. > 50 µM

// each compound listed below needs its IC50
1. CCN(CC)c1ccc(NC(=O)c2cccs2)cc1 [MMV009060]
2. COc1ccc(N2CCN(C(CNC(=O)C3CCCCC3)c3ccc4c(c3)OCO4)CC2)cc1 (stereo not drawn) [MMV019662]
3. CC(C)(C)c1ccc(C2CC3=Nc4ccccc4N(C(=O)c4ccccc4Cl)C(c4ccc(F)cc4)C3=C(O)C2)cc1 (stereo not drawn) [MMV011436]
4. COc1ccccc1N1C(=N)SC(=Cc2ccc(OCc3ccccc3F)cc2)C1=O [MMV007199]

Data returned:
["33.1 µM", "> 50 µM", "> 50 µM", "> 50 µM"]
